- Tested system: T1, human OT7T175 (metastin receptor) (human, UniProt Q969F8 1-398)
- T1 construct: expressed on CHO cells (hOT7T175-expressed CHO cells; hOT7T175/CHO); also called hOT7T175; h0T7T175
- T1 sequence (Q969F8 whole entry L364H): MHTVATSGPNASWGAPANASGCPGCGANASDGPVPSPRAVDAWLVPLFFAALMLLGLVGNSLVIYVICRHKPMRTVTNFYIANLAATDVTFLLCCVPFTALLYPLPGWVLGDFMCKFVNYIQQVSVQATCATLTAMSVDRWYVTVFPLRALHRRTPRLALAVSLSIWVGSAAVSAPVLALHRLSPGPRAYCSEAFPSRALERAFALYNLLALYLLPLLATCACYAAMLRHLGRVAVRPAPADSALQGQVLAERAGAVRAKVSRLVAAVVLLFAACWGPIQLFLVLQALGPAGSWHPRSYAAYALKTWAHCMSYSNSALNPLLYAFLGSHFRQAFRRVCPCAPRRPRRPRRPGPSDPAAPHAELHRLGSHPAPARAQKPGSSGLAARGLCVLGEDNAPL
- Run description: FMAT competition with Cy-5-labeled metastin (40-54), hOT7T175-expressed CHO cells
- Description: h0T7T175-Expressed CHO cells were cultured in MEM-α medium (nucleic acid-free) containing 10% dialyzed serum. The medium was removed and the adherent cells were washed with PBS. Then, PBS containing 5 mM EDTA was added and the cells were scraped from a flask with a cell scraper. […]
Square brackets hold non-standard residues; d marks the D form. Ends that are not written are not given here. Phe(2-F) = N[C@@H](Cc1ccccc1F)C(=O)O; Arg(Me) = CNC(=N)NCCC[C@H](N)C(=O)O; 4Pal = N[C@@H](Cc1ccncc1)C(=O)O; azaGly = NNC(=O)O
Labelling field: enter class 1 if recorded IC50 is less than 300 nM. Enter class 0 if it equals or exceeds that cut-off.

| Binder | Classification |
| --- | --- |
| Ac-TNSF[azaGly]L[Arg(Me)]F-NH2 (SMILES CNC(=N)NCCC[C@H](NC(=O)[C@H](CC(C)C)NC(=O)NNC(=O)[C@H](Cc1ccccc1)NC(=O)[C@H](CO)NC(=O)[C@H](CC(N)=O)NC(=O)[C@@H](NC(C)=O)[C@@H](C)O)C(=O)N[C@@H](Cc1ccccc1)C(N)=O) [Compound No. 276: des(1-2)-Acetyl-[Thr3,AzaGly7,Arg(Me)9]MS10] | class 0 |
| YNWNSFGLR[Phe(2-F)]-NH2 [Compound No. 19: [Phe(2F)10]MS10] | class 1 |
| [dW]NSFGL[Arg(Me)]F-NH2 [Compound No. 223: des(1-2)-[D-Trp3,Arg(Me)9]MS10] | class 0 |

With those in mind, consider the next binder.
Q: Is IC50 strictly under 300 nM for the entry [dY]N[4Pal]NSF[azaGly]L[Arg(Me)]F-NH2 [Compound No. 286: [D-Tyr1,Pya(4) 3,AzaGly7,Arg(Me)9]MS10] ?
Ans: class 1
